test system: HOP-92 NSCLC; test: NCI tumour cell line growth inhibition, 48 h
Quantity: TGI

COc1cc([C@@H]2c3cc4c(cc3[C@@H](OC3OC5COC(C)OC5C(OC(=O)CN5CCN(C)CC5)C3OC(=O)CN3CCN(C)CC3)C3COC(=O)[C@@H]32)OCO4)cc(OC)c1OC(=O)CN1CCN(C)CC1 (some centres not stated) = > 100 µM
CCCCCNC(=O)c1c(O)[nH]c(=S)[nH]c1=O = > 100 µM
OCC1OC2OC3C(CO)OC(OC4C(CO)OC(OC5C(CO)OC(OC6C(CO)OC(OC7C(CO)OC(OC1C(O)C2O)C(O)C7O)C(O)C6O)C(O)C5O)C(O)C4O)C(O)C3O (configuration not stated) (tested in a mixture with another compound) = > 100 µM
CN(C)C(=S)N/N=C(\C(=N/NC(=S)N(C)C)c1ccccn1)c1ccccn1 = 22.1 µM
CC(=O)OC1Oc2cc(C)c(C)cc2-c2oc(=O)c(-c3ccc(F)cc3)cc21 (configuration not stated) = 16.9 µM
CC(C)[Si](OC1=C(c2ccccc2)C(NC(=O)/C=C/c2ccc([N+](=O)[O-])cc2)CCC1)(C(C)C)C(C)C (configuration not stated) = > 100 µM
NCCCCN(CCCN)Cc1ccc2ccccc2c1 = > 100 µM

====

test system: COLO 205 colon; assay: NCI tumour cell line growth inhibition, 48 h; in the data active means GI50 below about 0.43 µM; inactive means the rest
Possible outcomes: 1 (yes) = active, 0 (no) = inactive

CCC[CH2][Sn]1([CH2]CCC)[O]CC(CN2CCOCC2)[O]1 (configuration not stated) = 0 (no)
Cn1ccnc1C(=O)/C=C/c1ccc(CC(=O)Nc2ccc(F)cc2)cc1 = 0 (no)
COc1cc(/C=C2\C(=O)N(c3ccccc3)c3ccccc32)cc(OC)c1OC = 0 (no)
CC(=O)OC1Oc2cc(C)c(C)cc2-c2oc(=O)c(-c3ccc(F)cc3)cc21 (configuration not stated) = 0 (no)
O=C1/C(=C/c2ccccc2F)CN(C(=O)C(Cl)Cl)C/C1=C\c1ccccc1F = 0 (no)
O=S(=O)(CCNCc1ccc(-c2ccc3ncnc(Nc4ccc(OCc5cccc(F)c5)c(Cl)c4)c3c2)o1)c1ccccc1 = 0 (no)
CSC1=Nc2c(c(C)c(C)n2COC(CO)CO)C2=NC(=O)CC(C)N12 (configuration not stated) = 0 (no)
Cc1ccc(-c2nc(N)c(C#N)c3c2CCOc2c-3ccc3ccccc23)cc1 = 1 (yes)
N=c1n(Cc2ccccc2)c(N)cc(=O)n1Cc1ccccc1 = 0 (no)
CC(C)n1c(=O)n(C)c2cnc3cc(F)c(-c4ccc(OCCCN5CCCCC5)nc4)cc3c21 = 0 (no)
O=C(O)c1c[nH]c2c(OCc3ccccc3)c3ccccc3c(O)c2c1=O = 0 (no)
Oc1ccc(-c2cn3cc(Cl)sc3n2)cc1 = 0 (no)

====

tested on: SNB-75 CNS; assay: NCI tumour cell line growth inhibition, 48 h
# GI50 listing for each entry below
Quantity: GI50

COc1nc(N)nc2c1ncn2[C@@H]1O[C@H](CO)[C@@H](O)[C@@H]1O = > 100 µM
C=C(C)[C@@H]1CC[C@]2(C(=O)O)CC[C@]3(C)[C@H](CC[C@@H]4[C@@]5(C)C/C(=C/c6ccc(OC)cc6)C(=O)C(C)(C)[C@@H]5CC[C@]43C)[C@@H]12 = 2.68 µM
CCCC1=C(C(=O)OCC)C(c2ccccc2OC)C(C#N)=C(N)O1 (stereo unspecified) = 32.2 µM
COc1ccc(-c2nn(-c3cccc(NC(=O)c4cccc(C(F)(F)F)c4)c3)cc2-c2ccncc2)cc1Cl = 1.17 µM
O=C1CCC(N2Cc3c(C#CCCCNC(=O)c4cc5c(o4)C(=O)c4ccccc4C5=O)cccc3C2=O)C(=O)N1 (stereo unspecified) = 2.09 µM
COc1ccc2c(c1)/C(=C\c1c(Cl)n(C)c3ccccc13)C(=O)N2 = 1.67 µM
COc1cc(-n2cnc(-c3ccc(Cl)cc3)c2)cc(OC)c1OC = 16.5 µM
COc1cc(/C=C2\C(=O)N(c3ccccc3)c3ccccc32)cc(OC)c1OC = 4.82 µM
O=C(NCCNc1nccc(-c2c(-c3ccc(F)cc3)nc3sccn23)n1)c1ccccc1 = 7.27 µM
N#Cc1c(N)nc(NCc2ccccc2)c(C#N)c1-c1ccccc1Cl = 10.3 µM
CC(=O)OC1Oc2cc(C)c(C)cc2-c2oc(=O)c(-c3ccc(F)cc3)cc21 (stereo unspecified) = 4.34 µM
